- assay.protocol: acute toxicity (LD50), i.v. and p.o.
- Set-up: species or system rats
- study.conditions: rat, in vivo, po; Rats (Male); read-out: LD50 (50% lethal dose) p.o.
recorded.metric: LD50 (mg/kg)
Lab book: enter the figure in mg/kg, no units written.

Query: Need LD50, item COCCOc1ccc(OCC(O)CNCCc2ccc(OC)c(OC)c2)c2c1NC(=O)CC2.O=C(O)/C=C\C(=O)O (stereo not shown)
Reply: 1550

---

- assay.protocol: acute toxicity (LD50), i.v. and p.o.
- Set-up: species or system rats
- study.conditions: rat, in vivo, iv; Rats (Male); read-out: LD50 (50% lethal dose) i.v.
recorded.metric: LD50 (mg/kg)
Lab book: enter the figure in mg/kg, no units written.

Query: Need LD50, item COCCOc1ccc(OCC(O)CNCCc2ccc(OC)c(OC)c2)c2c1NC(=O)CC2.O=C(O)/C=C\C(=O)O (stereo not shown)
Reply: 185

Where do the numbers come from? From patent US4289883A.
